- measurementProtocol: NCI Yeast Anticancer Drug Screen. Data for the rad50 strain (AID 155)
- conditionParameters: S. cerevisiae rad50 strain growth inhibition; at 50.0 µM (retest, dose inferred, filed as 5.0); hits give high values
This is part of a sample that, as a whole, favours compounds with a hit. Of some 79,000 tested, about 15% had one in any assay.
Assign Satisfied to entries whose growth inhibition meets or exceeds 70%; assign Not satisfied to the rest.

Task item: Identify whether the reported growth inhibition of the following compound is 70% or greater: CCOC(=O)C(=CNC(=S)Nc1c(CC)cccc1C(C)(C)C)C(=O)OCC
Reply: Satisfied

Task item: Tell me whether growth inhibition is at least 70% here: Cc1cccc(/C=N/Nc2cc(C)c3ccccc3n2)n1
Reply: Satisfied

Task item: Hi, just wondering whether CCS(=O)(=O)/C=C/c1ccc2ccccc2n1 shows growth inhibition of 70% or higher.
Reply: Not satisfied

Task item: For this compound, is measured growth inhibition 70% or higher? Cc1cc(C)nc(/C=C/c2ccc(/C=C/c3cc(C)cc(C)n3)cc2)c1
Reply: Not satisfied

Task item: Tell me whether growth inhibition is at least 70% here: O=C1CCCCCC1Cc1cc(O)c(CC2CCCCCC2=O)cc1O (stereo unspecified)
Reply: Not satisfied

Task item: Does the reported growth inhibition for OC1C2COc3nc4ccccc4n3C(O2)C1O (stereo unspecified) fall at or above the 70% mark?
Reply: Not satisfied

Task item: Say whether O=Cc1cc(S(=O)(=O)c2ccc(O)c(C=O)c2)ccc1O shows growth inhibition of 70% or more.
Reply: Not satisfied

Task item: Could you verify whether the entry CCCc1cc(=O)oc2c3c(c4c(c12)OC(C)(C)CC4)O[C@H](C)[C@@H](C)[C@H]3O shows growth inhibition of no less than 70%?
Reply: Satisfied

Task item: growth inhibition >= 70% for CC(=O)[O-].CC(=O)[O-].CC(=O)[O-].CC(=O)[O-].Cn1c(=O)c2[nH]cnc2n(C)c1=O.Cn1c(=O)c2[nH]cnc2n(C)c1=O.[Rh+2].[Rh+2] ?
Reply: Not satisfied

Task item: Is reported growth inhibition greater than or equal to 70% here: CC1(C)N=C(N)N=C(N)N1c1cccc(CCCCC(=O)CCl)c1
Reply: Satisfied

Task item: Check the entry COc1ccc(C2SCC(=O)N2c2nncs2)cc1 (stereo unspecified) : does growth inhibition equal or exceed 70%?
Reply: Not satisfied
